# protein stability index values compiled below
B1: DLC1 (parent)
chain: AIQGISEKEKAEIEAKEACDWLRA

- Variants of: B1
- test details: protein stability index of a GFP-peptide fusion (GPS, HEK-293T) (PSI 1-6); higher = more stable;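 also: lentivirally expressed fusions sorted by FACS into six bins by GFP to DsRed ratio, PSI derived from sequencing read proportions per bin multiplied by bin number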
- reported conditions: c terminus: a fixed tail appended

See these solved cases before continuing.
variant name | protein stability index
E12H | 3.46
Q3V | 4.34
D20F | 3.75
A24F | 4.32
A1G | 4.58

Incoming: Quick check: protein stability index of E17I ?
Outgoing: 4.12

Incoming: Quick check: protein stability index of G4F ?
Outgoing: 4.24

Incoming: Quick check: protein stability index of E17H ?
Outgoing: 4.18

Incoming: Quick check: protein stability index of A1L ?
Outgoing: 4.21

Incoming: Quick check: protein stability index of K8H ?
Outgoing: 4.4
